# target_system: T. cruzi mitochondrial Ca2+ uniporter complex (MCUC), control cells (Trypanosoma cruzi, UniProt Q4DHJ5+Q4DL37+Q4DYG3)
# Sequence (Q4DL37 entry or part of it): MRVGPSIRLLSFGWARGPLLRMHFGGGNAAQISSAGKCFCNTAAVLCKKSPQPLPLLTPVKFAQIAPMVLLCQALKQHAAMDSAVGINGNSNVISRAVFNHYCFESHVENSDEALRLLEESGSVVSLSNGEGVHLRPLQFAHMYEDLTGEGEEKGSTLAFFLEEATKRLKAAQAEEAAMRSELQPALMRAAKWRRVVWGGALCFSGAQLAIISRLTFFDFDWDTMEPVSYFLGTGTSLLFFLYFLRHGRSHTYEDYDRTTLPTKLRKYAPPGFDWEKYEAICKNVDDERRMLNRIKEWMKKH
# Sequence (Q4DHJ5 entry or part of it): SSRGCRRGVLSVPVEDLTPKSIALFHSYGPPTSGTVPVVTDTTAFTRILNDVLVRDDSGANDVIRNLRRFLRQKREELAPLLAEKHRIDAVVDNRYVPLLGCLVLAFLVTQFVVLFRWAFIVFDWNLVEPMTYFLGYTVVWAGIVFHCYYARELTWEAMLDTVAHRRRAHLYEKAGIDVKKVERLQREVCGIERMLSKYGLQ
# Sequence (Q4DYG3 entry or part of it): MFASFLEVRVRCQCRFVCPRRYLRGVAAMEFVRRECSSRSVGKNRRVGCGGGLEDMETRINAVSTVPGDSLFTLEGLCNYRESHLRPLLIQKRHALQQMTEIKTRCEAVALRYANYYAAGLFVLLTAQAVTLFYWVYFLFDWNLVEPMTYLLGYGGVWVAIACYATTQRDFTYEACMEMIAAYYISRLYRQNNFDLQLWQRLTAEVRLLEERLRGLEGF
# Sequence (Q4E667 entry or part of it, further chain): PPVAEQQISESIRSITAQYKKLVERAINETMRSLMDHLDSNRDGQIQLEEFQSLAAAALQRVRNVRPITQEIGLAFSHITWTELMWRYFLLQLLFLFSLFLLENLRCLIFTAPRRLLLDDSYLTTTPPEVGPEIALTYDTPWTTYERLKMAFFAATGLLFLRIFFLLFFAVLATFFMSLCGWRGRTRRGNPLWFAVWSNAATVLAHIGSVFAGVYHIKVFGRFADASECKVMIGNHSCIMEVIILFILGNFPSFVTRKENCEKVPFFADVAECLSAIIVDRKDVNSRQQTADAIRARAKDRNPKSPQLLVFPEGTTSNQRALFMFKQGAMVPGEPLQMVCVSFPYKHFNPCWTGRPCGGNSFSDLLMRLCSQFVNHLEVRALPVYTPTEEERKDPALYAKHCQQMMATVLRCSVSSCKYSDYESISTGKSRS
# assay_protocol: Ca2+ uptake by digitonin-permeabilized control epimastigotes (calcium green-5N)
# test_parameters: control (scrambled sgRNA) epimastigotes, ~30 µM Ca2+, 5 mM succinate, initial rate, read-out: IC50, inhibition of mitochondrial Ca2+ uptake
pIC50: −log10 of the molar value.
pIC50: recorded values
readout_kind: pIC50

N.N.N.N.N.N.N.N.[Cl][Ru+3].[NH]=[Ru][Cl]    7.58
N.N.N.N.N.N.N.N.N.N.N.N.N.N.[Cl-].[Cl-].[Cl-].[Cl-].[Cl-].[Cl-].[O-2].[O-2].[Ru+3].[Ru+3].[Ru+4]    6.93

====

# target_system: T. cruzi mitochondrial Ca2+ uniporter complex, TcMICU2-KO cells (Trypanosoma cruzi, UniProt Q4DHJ5+Q4DL37+Q4DYG3)
# Sequence (Q4DL37 entry or part of it): as the sequence (Q4DL37 entry or part of it) above
# Sequence (Q4DYG3 entry or part of it): as the sequence (Q4DYG3 entry or part of it) above
# Sequence (Q4DHJ5 entry or part of it): as the sequence (Q4DHJ5 entry or part of it) above
# assay_protocol: Ca2+ uptake by digitonin-permeabilized TcMICU2-KO epimastigotes (calcium green-5N)
# test_parameters: ~30 µM Ca2+, 5 mM succinate, initial rate, read-out: IC50, inhibition of mitochondrial Ca2+ uptake
IC50: recorded values
readout_kind: IC50 (nM)

N.N.N.N.N.N.N.N.N.N.N.N.N.N.[Cl-].[Cl-].[Cl-].[Cl-].[Cl-].[Cl-].[O-2].[O-2].[Ru+3].[Ru+3].[Ru+4]    11.9
N.N.N.N.N.N.N.N.[Cl][Ru+3].[NH]=[Ru][Cl]    14.1
